System: UACC-62 melanoma
Assay: NCI tumour cell line growth inhibition, 48 h
MEASURE: GI50

Here are 8 compounds together with their reported answers.
- COMPOUND: "C=C1c2nc3ccccc3n2C=C(c2cccc(Cl)c2)N1Cc1ccc(OC)cc1"
  TARGET DESC: "UACC-62 melanoma"
  GI50: "0.937 µM"
- COMPOUND: "CCCCC(=O)N(c1ccc(Nc2c3ccccc3nc3cc([N+](=O)[O-])ccc23)cc1)S(C)(=O)=O"
  TARGET DESC: "UACC-62 melanoma"
  GI50: "7.12 µM"
- COMPOUND: "Cn1ncc(C#N)c1-c1ccc2c(c1)CN([C@H](CN)Cc1cccc(F)c1)C2=O"
  TARGET DESC: "UACC-62 melanoma"
  GI50: "3.17 µM"
- COMPOUND: "CCc1nc(C)cn1C(=O)OCc1nc2nc(Cl)nc(N3CCOCC3)c2[nH]1"
  TARGET DESC: "UACC-62 melanoma"
  GI50: "1.44 µM"
- COMPOUND: "COc1cccc2c1C(=O)c1c(O)c3c(c(O)c1C2=O)C[C@@](O)(/C(CO)=N/NC(=O)CCCCCN1C(=O)C=CC1=O)C[C@@H]3O[C@H]1C[C@H](N)[C@H](O)[C@H](C)O1"
  TARGET DESC: "UACC-62 melanoma"
  GI50: "0.621 µM"
- COMPOUND: "COc1ccc(Cn2cc(COc3cc(/C=C/C(=O)c4cc(OC)c(OC)c(OC)c4)ccc3OC)nn2)cc1"
  TARGET DESC: "UACC-62 melanoma"
  GI50: "4.19 µM"
- COMPOUND: "Cc1sc(C(=O)c2cncnc2N[C@@H]2C[C@H](COS(N)(=O)=O)[C@@H](O)C2)cc1[C@@H]1NCCc2ccc(Cl)cc21"
  TARGET DESC: "UACC-62 melanoma"
  GI50: "3.75 µM"
- COMPOUND: "Cc1ccc(N)cc1[As]=[As]c1cc(N)ccc1C (centres undefined)"
  TARGET DESC: "UACC-62 melanoma"
  GI50: "1.51 µM"

Let us examine a further case.
Provide the documented GI50 with UACC-62 melanoma as the system for CC1=CC(=O)N(c2cccc3c(N4C(=O)C=C(C)C4=O)cccc23)C1=O
7.68 µM
